Reported Oral relative bioavailability F (%) is given for each of the following molecules.
experiment: in vivo; details: mouse, in vivo, po, 30 mg/kg
The number alone won't do; follow it with the unit.

Known Oral relative bioavailability F (%) results, listed for orientation:
> print(dat)
                                   molecule  readout.value
1  C=CC(=O)N1CCCC(Nc2nc(Nc3ccc(N4CCN(C5COC5)CC4C)cc3)c3c(c2F)CNC3=O)C1 (stereo not drawn)          28.6%
2  C=CC(=O)N1CCCC(Nc2nc(Nc3ccc(N4CCOCC4)c(F)c3)c3c(c2F)CNC3=O)C1 (stereo not drawn)          15.6%

Name the recorded Oral relative bioavailability F (%) for C=CC(=O)N1CCCC(Nc2nc(Nc3ccc(N4CCOCC4)cc3F)c3c(c2F)CNC3=O)C1 (stereo not drawn) .
28.2%

Name the recorded Oral relative bioavailability F (%) for C=CC(=O)N1CCCC(N(C)c2nc(-c3cnn(C)c3)c3c(c2F)CNC3=O)C1 (stereo not drawn) .
3%

Name the recorded Oral relative bioavailability F (%) for C=CC(=O)N1CCCC(Nc2nc(Nc3ccc(N4CCOCC4)c(Cl)c3)c3c(c2F)CNC3=O)C1 (stereo not drawn) .
15.2%

Name the recorded Oral relative bioavailability F (%) for C=CC(=O)N1CCCC(Nc2nc(Nc3ccc(N4CCOCC4C)cc3)c3c(c2F)CNC3=O)C1 (stereo not drawn) .
14.7%

Name the recorded Oral relative bioavailability F (%) for C=CC(=O)N1CCCC(Nc2nc(Nc3ccc(N4CCOCC4C)c(F)c3)c3c(c2F)CNC3=O)C1 (stereo not drawn) .
12.3%

Name the recorded Oral relative bioavailability F (%) for C=CC(=O)N1CCCC(Nc2nc(Nc3cc(C)ns3)c3c(c2F)CNC3=O)C1 (stereo not drawn) .
14%

Name the recorded Oral relative bioavailability F (%) for C=CC(=O)N1CCCC(Nc2nc(Nc3ccc(N4CCOCC4)cc3)c3c(c2F)CNC3=O)C1 (stereo not drawn) .
13.7%

----------
Reported half-life is given for each of the following molecules.
assay: in vivo; settings: male, ICR, mouse, in vivo, po, 30 mg/kg
I only need the number, in h, no unit after it.

> print(dat)
                                   molecule  measurement.type  readout.value
1  C=CC(=O)N1CCCC(N(C)c2nc(Nc3cc(C)ns3)c3c(c2F)CNC3=O)C1 (stereo not shown) [Compound G-72]         half-life           11.3
2  C=CC(=O)N1CCC[C@@H](Nc2nc(-c3cnn(C)c3)c3c(c2F)CNC3=O)C1 [Compound G-111]         half-life           5.93
3  C=CC(=O)N1CCC[C@@H](Nc2nc(Nc3ccc(N4CCN(C5COC5)C[C@@H]4C)c(F)c3)c3c(c2F)CNC3=O)C1 [Compound G-91]         half-life            4.7

Next item in the queue.
Name the recorded half-life for C=CC(=O)N1CC(Nc2nc(-c3cnn(C)c3)c3c(c2F)CNC3=O)CCC1C (stereo not shown) [Compound G-26] .
2.12

----------
Entries with their measured pIC50, system wild-type EGFR kinase (Homo sapiens (Human), UniProt P00533):
Bear in mind: pIC50 is minus log10 of a mol/L concentration; give just that figure.

Known pIC50 results, listed for orientation:
> print(dat)
                                   molecule  readout.value
1  C=CC(=O)N1CCCC(N(CC)c2nc(Nc3ccc(N4CCOCC4)cc3)c3c(c2F)CNC3=O)C1 (stereo not drawn) [Compound G-74]           5.86
2  C=CC(=O)N1CC(Nc2nc(-c3cnn(C)c3)c3c(c2F)CNC3=O)CCC1C (stereo not drawn) [Compound G-26]           5.17
3  C=CC(=O)N1CCCC(Nc2nc(Nc3ccc(N4CCC(O)C(C)(C)C4)cn3)c3c(c2F)CNC3=O)C1 (stereo not drawn) [Compound G-21]           5.08

Can you look up pIC50 on wild-type EGFR kinase (Homo sapiens (Human), UniProt P00533) for C=CC(=O)N1CCCC(Nc2nc(Nc3ccc(N4CCOCC4C)cc3)c3c(c2F)CNC3=O)C1 (stereo not drawn) [Compound G-32] ?
5.27

Ref: patent US11155546B2
